assay: Tested for the pharmacokinetic data, maximum concentration (Cmax) in dog; type: ADME, organism-based, Canis lupus familiaris; details: in vivo
Threshold check on Cmax: strictly below 600 nM is 1.0; on or above 600 nM is 0.0.

Please review the following examples before continuing.
[[record]]
compound = "CC(C)(C)NC(=O)[C@@H]1CN(Cc2cccnc2)CCN1C[C@@H](O)C[C@@H](CC1CCCCC1)C(=O)NC1c2cccc(F)c2C[C@H]1O (single isomer, unassigned)"
category = 1.0

[[record]]
compound = "CC(C)(C)NC(=O)[C@@H]1CN(Cc2cccnc2)CCN1C[C@@H](O)C[C@@H](Cc1ccccc1)C(=O)NC1c2cccc(F)c2C[C@H]1O (single isomer, unassigned)"
category = 1.0

[[record]]
compound = "C[C@@H]1CC[C@@H](O)C1NC(=O)[C@H](Cc1ccccc1)C[C@H](O)CN1CCN(Cc2cccnc2)C[C@H]1C(=O)NC(C)(C)C (single isomer, unassigned)"
category = 1.0


Moving on to another compound below.
Ask: Find out if reported Cmax for C[C@@H]1CC[C@@H](O)C1NC(=O)[C@H](CC1CC1)C[C@H](O)CN1CCN(Cc2cccnc2)C[C@H]1C(=O)NC(C)(C)C (single isomer, unassigned) is less than 600 nM
Result: 0.0

* * *

Measured IC50 values are reported for all entries that follow.
biological target: Human immunodeficiency virus type 1 protease (Human immunodeficiency virus 1, UniProt Q72874); assay: Tested in vitro for potential potency against PI-resistant HIV virus by A-44 mutant enzyme variant

// known answers, use as guide
[[record]]
molecule = "CN(C)c1ccc2cc(S(=O)(=O)N3CCN(C[C@@H](O)C[C@@H](Cc4ccccc4)C(=O)N[C@H]4c5ccccc5C[C@H]4O)[C@H](C(=O)NC(C)(C)C)C3)ccc2n1"
measure_name = "IC50"
assay_value = "< 0.6 nM"

[[record]]
molecule = "Cn1nc(C(F)(F)F)cc1-c1ccc(CN2CCN(C[C@@H](O)C[C@@H](Cc3ccccc3)C(=O)NC3c4ccccc4C[C@H]3O)[C@H](C(=O)NC(C)(C)C)C2)s1 (single isomer, unassigned)"
measure_name = "IC50"
assay_value = "< 0.6 nM"


Now let's try a different one.
Ask: Please report the measured IC50 for `CC(C)(C)NC(=O)[C@@H]1CN(Cc2ncc(-c3ccccc3)s2)CCN1C[C@@H](O)C[C@@H](Cc1ccccc1)C(=O)N[C@H]1c2ccccc2C[C@H]1O`
Result: < 0.6 nM

* * *

assay: Tested for the pharmacokinetic data, maximum concentration (Cmax) in dog; assay type: ADME, organism-based, Canis lupus familiaris; settings: in vivo
MEASURE NAME: Cmax (nM)
Value expressed in nM; do not type the unit.

[[record]]
compound = "CC(C)(C)NC(=O)[C@@H]1CN(Cc2cccnc2)CCN1C[C@@H](O)C[C@@H](CC1CCCCC1)C(=O)NC1c2cccc(Cl)c2C[C@H]1O (single isomer, unassigned)"
measure_name = "Cmax"
measurement_units = "nM"
assay_value = 182

[[record]]
compound = "CC(C)(C)NC(=O)[C@@H]1CN(Cc2cccnc2)CCN1C[C@@H](O)C[C@@H](Cc1ccc(F)cc1)C(=O)N[C@@H]1c2cccc(F)c2C[C@H]1O"
measure_name = "Cmax"
measurement_units = "nM"
assay_value = 195


Ask: Please report the measured Cmax for CC(C)(C)NC(=O)[C@@H]1CN(Cc2cccnc2)CCN1C[C@@H](O)C[C@@H](Cc1ccccc1)C(=O)NC1c2cccc(Cl)c2C[C@H]1O (single isomer, unassigned)
Result: 250

Ask: Please report the measured Cmax for CC(C)(C)NC(=O)[C@@H]1CN(Cc2cccnc2)CCN1C[C@@H](O)C[C@@H](CC1CC1)C(=O)NC1c2cccc(Cl)c2C[C@H]1O (single isomer, unassigned)
Result: 626

Ask: Please report the measured Cmax for CC(C)(C)NC(=O)[C@@H]1CN(Cc2cccnc2)CCN1C[C@@H](O)C[C@@H](Cc1ccc(F)cc1)C(=O)NC1c2ccccc2C[C@H]1O (single isomer, unassigned)
Result: 264

* * *

test: Tested for the pharmacokinetic data, maximum concentration (Cmax) in dog at dosage of 10 mpk; format: ADME, organism-based, Canis lupus familiaris; set-up: dose 10 mpk; details: in vivo, 10 mg/kg
MEASURE NAME: Cmax (µM)
Value expressed in µM; do not type the unit.

// known answers, use as guide
[[record]]
molecule = "C[C@@H]1CC[C@@H](O)C1NC(=O)[C@H](CC1CCCCC1)C[C@H](O)CN1CCN(Cc2cccnc2)C[C@H]1C(=O)NC(C)(C)C (single isomer, unassigned)"
assay_value = 3.76

[[record]]
molecule = "CC(C)(C)NC(=O)[C@@H]1CN(Cc2cccnc2)CCN1C[C@@H](O)C[C@@H](CC1CCCCC1)C(=O)NC1c2cccc(Cl)c2C[C@H]1O (single isomer, unassigned)"
assay_value = 0.36


Now let's try a different one.
Ask: Please report the measured Cmax for C[C@@H]1CC[C@@H](O)C1NC(=O)[C@H](CC1CC1)C[C@H](O)CN1CCN(Cc2cccnc2)C[C@H]1C(=O)NC(C)(C)C (single isomer, unassigned)
Result: 6.62

* * *

test: Tested for the pharmacokinetic data, maximum concentration (Cmax) in dog; format: ADME, organism-based, Canis lupus familiaris; conditions: in vivo
Measured Cmax values are reported for all entries that follow.

Ask: Please report the measured Cmax for CC(C)(C)NC(=O)[C@@H]1CN(Cc2cccnc2)CCN1C[C@@H](O)C[C@@H](Cc1cccnc1)C(=O)NC1c2cccc(Cl)c2C[C@H]1O (single isomer, unassigned)
Result: 220 nM

Ask: Please report the measured Cmax for `C[C@@H]1CC[C@@H](O)[C@@H]1NC(=O)[C@H](Cc1ccc(F)cc1)C[C@H](O)CN1CCN(Cc2cccnc2)C[C@H]1C(=O)NC(C)(C)C`
Result: 378 nM

Ask: Please report the measured Cmax for `CC(C)(C)NC(=O)[C@@H]1CN(Cc2cccnc2)CCN1C[C@@H](O)C[C@@H](Cc1cccnc1)C(=O)N[C@@H]1c2ccccc2C[C@H]1O`
Result: 313 nM

Ask: Please report the measured Cmax for C[C@@H]1CC[C@@H](O)C1NC(=O)[C@H](Cc1cccnc1)C[C@H](O)CN1CCN(Cc2cccnc2)C[C@H]1C(=O)NC(C)(C)C (single isomer, unassigned)
Result: 524 nM

Ask: Please report the measured Cmax for CC(C)(C)NC(=O)[C@@H]1CN(Cc2cccnc2)CCN1C[C@@H](O)C[C@@H](Cc1ccccc1)C(=O)NC1c2ccccc2C[C@H]1O.O (single isomer, unassigned)
Result: 358 nM

* * *

assay: Tested for the half life period in dog; format: ADME, organism-based, Canis lupus familiaris; details: in vivo
MEASURE NAME: half-life
Kindly format the answer as number then unit.

[[record]]
molecule = "CC(C)(C)NC(=O)[C@@H]1CN(Cc2cccnc2)CCN1C[C@@H](O)C[C@@H](Cc1cccnc1)C(=O)N[C@@H]1c2ccccc2C[C@H]1O"
measure_name = "half-life"
assay_value = "43.4 min"

[[record]]
molecule = "CC(C)(C)NC(=O)[C@@H]1CN(Cc2cccnc2)CCN1C[C@@H](O)C[C@@H](CC1CC1)C(=O)NC1c2cccc(Cl)c2C[C@H]1O (single isomer, unassigned)"
measure_name = "half-life"
assay_value = "23 min"

[[record]]
molecule = "CC(C)(C)NC(=O)[C@@H]1CN(Cc2cccnc2)CCN1C[C@@H](O)C[C@@H](CC1CCCCC1)C(=O)NC1c2cccc(F)c2C[C@H]1O (single isomer, unassigned)"
measure_name = "half-life"
assay_value = "48.2 min"

[[record]]
molecule = "C[C@@H]1CC[C@@H](O)C1NC(=O)[C@H](CC1CCCCC1)C[C@H](O)CN1CCN(Cc2cccnc2)C[C@H]1C(=O)NC(C)(C)C (single isomer, unassigned)"
measure_name = "half-life"
assay_value = "42.5 min"


Ask: Please report the measured half-life for CC(C)(C)NC(=O)[C@@H]1CN(Cc2cccnc2)CCN1C[C@@H](O)C[C@@H](Cc1ccc(F)cc1)C(=O)NC1c2cccc(Cl)c2C[C@H]1O (single isomer, unassigned)
Result: 50.5 min

* * *

assay: Tested for the pharmacokinetic data, area under the curve of concentration versus time in dog; type: ADME, organism-based, Canis lupus familiaris; settings: in vivo
Measured AUC values are reported for all entries that follow.
Value expressed in µM·h; do not type the unit.

// known answers, use as guide
[[record]]
compound = "C[C@@H]1CC[C@@H](O)[C@@H]1NC(=O)[C@H](Cc1ccc(F)cc1)C[C@H](O)CN1CCN(Cc2cccnc2)C[C@H]1C(=O)NC(C)(C)C"
measure_name = "AUC"
measurement_units = "µM·h"
assay_value = 0.371

[[record]]
compound = "CC(C)(C)NC(=O)[C@@H]1CN(Cc2cccnc2)CCN1C[C@@H](O)C[C@@H](CC1CCCCC1)C(=O)NC1c2ccccc2C[C@H]1O (single isomer, unassigned)"
measure_name = "AUC"
measurement_units = "µM·h"
assay_value = 0.26

[[record]]
compound = "CC(C)(C)NC(=O)[C@@H]1CN(Cc2cccnc2)CCN1C[C@@H](O)C[C@@H](CC1CC1)C(=O)NC1c2cccc(Cl)c2C[C@H]1O (single isomer, unassigned)"
measure_name = "AUC"
measurement_units = "µM·h"
assay_value = 0.566

[[record]]
compound = "CC(C)(C)NC(=O)[C@@H]1CN(Cc2cccnc2)CCN1C[C@@H](O)C[C@@H](CC1CC1)C(=O)NC1c2ccccc2C[C@H]1O (single isomer, unassigned)"
measure_name = "AUC"
measurement_units = "µM·h"
assay_value = 0.566

[[record]]
compound = "CC(C)(C)NC(=O)[C@@H]1CN(Cc2cccnc2)CCN1C[C@@H](O)C[C@@H](Cc1cccnc1)C(=O)N[C@@H]1c2ccccc2C[C@H]1O"
measure_name = "AUC"
measurement_units = "µM·h"
assay_value = 0.291

[[record]]
compound = "CC(C)(C)NC(=O)[C@@H]1CN(Cc2cccnc2)CCN1C[C@@H](O)C[C@@H](Cc1cccnc1)C(=O)NC1c2cccc(Cl)c2C[C@H]1O (single isomer, unassigned)"
measure_name = "AUC"
measurement_units = "µM·h"
assay_value = 0.227


Ask: Please report the measured AUC for C[C@@H]1CC[C@@H](O)C1NC(=O)[C@H](Cc1ccccc1)C[C@H](O)CN1CCN(Cc2cccnc2)C[C@H]1C(=O)NC(C)(C)C (single isomer, unassigned)
Result: 0.512

Ask: Please report the measured AUC for CC(C)(C)NC(=O)[C@@H]1CN(Cc2cccnc2)CCN1C[C@@H](O)C[C@@H](CC1CCCCC1)C(=O)NC1c2cccc(F)c2C[C@H]1O (single isomer, unassigned)
Result: 0.236
